# assayed_target: h-TRPA1 (Homo sapiens (Human), UniProt O75762)
# Sequence (O75762 whole entry): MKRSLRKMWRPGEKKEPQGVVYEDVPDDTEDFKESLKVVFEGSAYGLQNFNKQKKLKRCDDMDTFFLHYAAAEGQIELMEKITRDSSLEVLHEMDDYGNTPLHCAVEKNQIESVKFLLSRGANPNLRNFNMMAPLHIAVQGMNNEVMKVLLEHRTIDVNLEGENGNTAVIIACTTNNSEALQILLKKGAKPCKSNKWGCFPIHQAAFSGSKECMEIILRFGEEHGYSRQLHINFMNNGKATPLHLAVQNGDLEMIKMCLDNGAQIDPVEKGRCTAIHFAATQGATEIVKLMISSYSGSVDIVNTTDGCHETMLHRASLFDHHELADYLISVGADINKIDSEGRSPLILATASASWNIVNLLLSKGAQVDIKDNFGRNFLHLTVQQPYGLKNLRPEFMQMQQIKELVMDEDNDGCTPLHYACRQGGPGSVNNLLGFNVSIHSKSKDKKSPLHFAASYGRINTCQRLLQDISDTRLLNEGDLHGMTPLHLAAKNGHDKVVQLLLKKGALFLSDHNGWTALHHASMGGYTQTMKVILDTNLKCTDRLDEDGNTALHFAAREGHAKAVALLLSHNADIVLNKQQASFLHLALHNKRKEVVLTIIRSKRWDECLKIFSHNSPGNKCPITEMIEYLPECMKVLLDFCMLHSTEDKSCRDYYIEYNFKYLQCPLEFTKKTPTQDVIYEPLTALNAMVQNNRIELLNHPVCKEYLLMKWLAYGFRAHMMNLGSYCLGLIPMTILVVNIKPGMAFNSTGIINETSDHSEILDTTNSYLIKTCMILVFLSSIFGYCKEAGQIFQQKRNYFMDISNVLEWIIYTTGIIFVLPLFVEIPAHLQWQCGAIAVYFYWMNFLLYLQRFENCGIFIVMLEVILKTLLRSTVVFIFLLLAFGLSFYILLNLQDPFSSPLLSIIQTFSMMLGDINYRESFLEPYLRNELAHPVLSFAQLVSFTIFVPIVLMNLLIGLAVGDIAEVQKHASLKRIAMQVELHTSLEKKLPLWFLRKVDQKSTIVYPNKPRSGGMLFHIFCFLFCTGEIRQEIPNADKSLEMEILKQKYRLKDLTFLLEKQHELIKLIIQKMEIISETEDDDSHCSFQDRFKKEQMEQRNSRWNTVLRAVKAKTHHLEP
# test_details: Dose response calcium flux (FLIPR) assay, ChanTest hTRPA1-CHO stably transfected cell line
# conditions: CHO-K1 Tet-on TRPA1 cells; calcium flux after cinnamaldehyde 100 uM agonist; 30 min compound preincubation
quantity_name: pIC50
# pIC50 = -log10(concentration in molar units)

Field: example entries. Status: answers known.
Any idea what pIC50 was measured for CC(C)N(CC(=O)NC[C@H]1CN(c2ccc(C(F)(F)F)cc2)CCO1)S(=O)(=O)c1ccc(F)cc1 ?
6.82

Any idea what pIC50 was measured for CC(C)N(CC(=O)NCC1CN(c2ccc(C(F)(F)F)cn2)CCO1)S(=O)(=O)c1ccc(F)cc1 (stereo not shown) ?
6.41

Further cases:
Any idea what pIC50 was measured for CC(C)N(CC(=O)NCC1CN(c2ccc(C(F)(F)F)cc2)CCO1)S(=O)(=O)c1ccc(F)cc1 (racemic) ?
6.71

Any idea what pIC50 was measured for CC(C)N(CC(=O)NC[C@@H]1CN(c2ccc(C(F)(F)F)cc2)CCO1)S(=O)(=O)c1ccc(F)cc1 ?
5.88

Any idea what pIC50 was measured for CCN(CC(=O)NCC1CCCN(c2ccc(C(F)(F)F)cc2)C1)S(=O)(=O)c1ccc(F)cc1 (stereo not shown) ?
6.31

Any idea what pIC50 was measured for CC(C)N(CC(=O)NCC1CCCN(c2ccc(C(F)(F)F)cc2)C1)S(=O)(=O)c1ccc(F)cc1 (racemic) ?
6.63

Any idea what pIC50 was measured for CC(C)N(CC(=O)NCC1CCN(c2ccc(C(F)(F)F)cc2)C1)S(=O)(=O)c1ccc(F)cc1 (stereo not shown) ?
6.37
